- Tested on: T. congolense
- assay_name: NMRI mouse efficacy model, T. congolense
- Type: in vivo, Trypanosoma congolense
- experimental_conditions: mice; 10 mg/kg SC once daily for 4 days
recorded_metric: Efficacy at 10 mg/kg SC for 4 days, T. congo

molecular_string	test_system	assay_result
CC(C)CS(=O)(=O)N[C@H]1CC[C@H](Nc2nc(N)c(C(=O)c3c(F)cc(CN4CCCC4)cc3F)s2)CC1.Cl	T. congolense	Partial cure (1/3)
CC(C)CS(=O)(=O)N[C@H]1CC[C@H](Nc2nc(N)c(C(=O)c3c(F)cc(CN4CCN(C)CC4)cc3F)s2)CC1.Cl	T. congolense	Partial cure (1/3)

---

- assay_name: Comparative cattle PK, IM compared to SC (NorthWest Biopharm)
- Assay type: in vivo
- experimental_conditions: Aberdeen Angus crossbreed and Limousin crossbreed, bovine, blood, 5 mg/kg free base, SC
recorded_metric: Tmax (h)

molecular_string	assay_result
CC(C)CS(=O)(=O)N[C@H]1CC[C@H](Nc2nc(N)c(C(=O)c3c(F)cc(CN(C)C)cc3F)s2)CC1	3

---

- assay_name: Pharmacokinetic studies in male Friesian-Holstein cattle, IV and IM (Ridgeway)
- Type: in vivo
- experimental_conditions: male, Holstein-Friesian cross, bovine, blood, iv, 2 mg/kg, cattle; IV 2 mg/kg; n = 3; mean
recorded_metric: AUC(0-inf) (ng·h/mL)

molecular_string	recorded_metric	assay_result
CC(C)CS(=O)(=O)N[C@H]1CC[C@H](Nc2nc(N)c(C(=O)c3c(F)cc(CN(C)C)cc3F)s2)CC1	AUC(0-inf)	2170

---

- assay_name: Solubility of compound 1 in PBS pH 7.4 (filtration, UHPLC)
- Assay type: physicochemical
- experimental_conditions: phosphate buffered saline; aqueous; PBS pH 7.4, 24 h mixing, UHPLC (method used for compound 1)
- Description: software. All experiments were conducted with technical duplicates and at least three biological […] 1.4 Cytotoxicity assays – Rat skeletal myoblasts (L6) The cytotoxicity of test compounds was evaluated using a rat skeletal myoblast (L6) cell line, as previously described3, but with minor modifications. […] The plates were read using a SpectraMax (Gemini XS) fluorescence reader at an excitation wavelength of 536 nm and an emission wavelength of 588 nm. […]

molecular_string	measurement_units	solubility at 24 h
CC(C)CS(=O)(=O)N[C@H]1CC[C@H](Nc2nc(N)c(C(=O)c3c(F)cccc3F)s2)CC1	µM	105

---

- assay_name: Pharmacokinetic studies in male Friesian-Holstein cattle, IV and IM (Ridgeway)
- Format: in vivo
- experimental_conditions: male, Holstein-Friesian cross, bovine, blood, im, 10 mg/kg, cattle; IM 10 mg/kg; n = 3; mean; read-out: Tmax

compound	Tmax
CC(C)CS(=O)(=O)N[C@H]1CC[C@H](Nc2nc(N)c(C(=O)c3c(F)cc(CN(C)C)cc3F)s2)CC1 [Compound 2]	1 h

---

- assay_name: Pharmacokinetic studies in male Friesian-Holstein cattle, IV and IM (Ridgeway)
- Format: in vivo
- experimental_conditions: male, Holstein-Friesian cross, bovine, blood, im, 5 mg/kg, cattle; IM 5 mg/kg; n = 4; mean
- Experimental: 2.7 Pharmacokinetic studies in cattle (see Table 2). Studies conducted at Ridgeway Compound 1 was dosed IM at 5 mg free base/kg (dose volume 2mL/10 kg; dose vehicle 10% N-Methyl-2-Pyrrolidinone (NMP), 40% 2-pyrrolidinone, 30% PEG400, 20% deionized water) or IV at 2.5 mg free base/kg (dose volume 0.4 mL/10 kg; 2.5% NMP, 30% PEG400, 37.5% propylene glycol, 30% water by volume) to male ruminating Holstein-Friesian cross animals (n = 4). […]
recorded_metric: bioavailability (%)

molecular_string	assay_result
CC(C)CS(=O)(=O)N[C@H]1CC[C@H](Nc2nc(N)c(C(=O)c3c(F)cccc3F)s2)CC1	9

---

- assay_name: PK and formulation studies in Sprague Dawley rats, IM
- Assay type: in vivo
- experimental_conditions: male, rat, blood; Sprague Dawley rats; single IM 5 mg/kg; 10% NMP, 30% 2-pyrrolidinone, 40% PEG400, 20% water; mean

molecular_string	Cmax
CC(C)CS(=O)(=O)N[C@H]1CC[C@H](Nc2nc(N)c(C(=O)c3c(F)cccc3F)s2)CC1	92 ng/mL

---

- assay_name: Pharmacokinetic studies in male Friesian-Holstein cattle, IV and IM (Ridgeway)
- Format: in vivo
- experimental_conditions: male, Holstein-Friesian cross, bovine, blood, im, 10 mg/kg, cattle; IM 10 mg/kg; n = 3; mean

molecular_string	bioavailability, %
CC(C)CS(=O)(=O)N[C@H]1CC[C@H](Nc2nc(N)c(C(=O)c3c(F)cc(CN(C)C)cc3F)s2)CC1	74

---

- assay_name: Pharmacokinetic studies in male Friesian-Holstein cattle, IV and IM (Ridgeway)
- Type: in vivo
- experimental_conditions: male, Holstein-Friesian cross, bovine, blood, im, 10 mg/kg, cattle; IM 10 mg/kg; individual animals 1644, 3646, 7643
recorded_metric: AUC(0-inf) (ng·h/mL)

molecular_string	measurement_units	assay_result
CC(C)CS(=O)(=O)N[C@H]1CC[C@H](Nc2nc(N)c(C(=O)c3c(F)cc(CN(C)C)cc3F)s2)CC1	ng·h/mL	8830

---

- assay_name: Protein plasma binding
- Assay type: in vitro ADME
- experimental_conditions: mouse

compound	fraction unbound
CC(C)CS(=O)(=O)N[C@H]1CC[C@H](Nc2nc(N)c(C(=O)c3c(F)cccc3F)s2)CC1 [Compound 1]	0.16

---

- assay_name: in vivo
- experimental_conditions: NMRI, mouse

compound	Cmax
CC(C)CS(=O)(=O)N[C@H]1CC[C@H](Nc2nc(N)c(C(=O)c3c(F)cc(CN(C)C)cc3F)s2)CC1 [Compound 2]	34 to 65 ng/mL

---

- assay_name: PK and formulation studies in Sprague Dawley rats, IM
- Type: in vivo
- experimental_conditions: male, rat, blood; Sprague Dawley rats; single IM 5 mg/kg; 10% NMP, 30% 2-pyrrolidinone, 40% PEG400, 20% water; mean; read-out: AUC0-8 (converted)
recorded_metric: AUC(0-t)

compound	assay_result
CC(C)CS(=O)(=O)N[C@H]1CC[C@H](Nc2nc(N)c(C(=O)c3c(F)cccc3F)s2)CC1 [Compound 1]	354 ng·h/mL

---

- assay_name: Comparative cattle PK, IM compared to SC (NorthWest Biopharm)
- Format: in vivo
- experimental_conditions: Aberdeen Angus crossbreed and Limousin crossbreed, bovine, blood, 5 mg/kg free base, SC

compound	measurement_units	Cmax
CC(C)CS(=O)(=O)N[C@H]1CC[C@H](Nc2nc(N)c(C(=O)c3c(F)cc(CN(C)C)cc3F)s2)CC1 [Compound 2]	ng/mL	86

---

- assay_name: Pharmacokinetic studies in male Friesian-Holstein cattle, IV and IM (Ridgeway)
- Type: in vivo
- experimental_conditions: male, Holstein-Friesian cross, bovine, blood, im, 5 mg/kg, cattle; IM 5 mg/kg; individual animals 2754, 7462, 1753, 6752
- Protocol: 2.7 Pharmacokinetic studies in cattle (see Table 2). Studies conducted at Ridgeway Compound 1 was dosed IM at 5 mg free base/kg (dose volume 2mL/10 kg; dose vehicle 10% N-Methyl-2-Pyrrolidinone (NMP), 40% 2-pyrrolidinone, 30% PEG400, 20% deionized water) or IV at 2.5 mg free base/kg (dose volume 0.4 mL/10 kg; 2.5% NMP, 30% PEG400, 37.5% propylene glycol, 30% water by volume) to male ruminating Holstein-Friesian cross animals (n = 4). […]
recorded_metric: bioavailability (%)

molecular_string	assay_result
CC(C)CS(=O)(=O)N[C@H]1CC[C@H](Nc2nc(N)c(C(=O)c3c(F)cccc3F)s2)CC1	10

---

- assay_name: Pharmacokinetic studies in male Friesian-Holstein cattle, IV and IM (Ridgeway)
- Assay type: in vivo
- experimental_conditions: male, Holstein-Friesian cross, bovine, blood, im, 10 mg/kg, cattle; IM 10 mg/kg; n = 3; mean; read-out: Cmax
- Protocol: 2.7 Pharmacokinetic studies in cattle (see Table 2). Studies conducted at Ridgeway Compound 1 was dosed IM at 5 mg free base/kg (dose volume 2mL/10 kg; dose vehicle 10% N-Methyl-2-Pyrrolidinone (NMP), 40% 2-pyrrolidinone, 30% PEG400, 20% deionized water) or IV at 2.5 mg free base/kg (dose volume 0.4 mL/10 kg; 2.5% NMP, 30% PEG400, 37.5% propylene glycol, 30% water by volume) to male ruminating Holstein-Friesian cross animals (n = 4). […]

molecular_string	Cmax [ng/mL]
CC(C)CS(=O)(=O)N[C@H]1CC[C@H](Nc2nc(N)c(C(=O)c3c(F)cc(CN(C)C)cc3F)s2)CC1	1720

---

- assay_name: Pharmacokinetic studies in male Friesian-Holstein cattle, IV and IM (Ridgeway)
- Type: in vivo
- experimental_conditions: male, Holstein-Friesian cross, bovine, blood, im, 10 mg/kg, cattle; IM 10 mg/kg; n = 3; mean

molecular_string	measurement_units	AUC(0-inf)
CC(C)CS(=O)(=O)N[C@H]1CC[C@H](Nc2nc(N)c(C(=O)c3c(F)cc(CN(C)C)cc3F)s2)CC1	ng·h/mL	8170
